Origin of measurements: patent US20240327535A1

Target: T1, extracellular domain of human BCMA (human, UniProt Q02223 1-54)
T1 construct: amine-linked to Octet AR2G tips; also called hsBCMA; BCMA (human)
T1 sequence: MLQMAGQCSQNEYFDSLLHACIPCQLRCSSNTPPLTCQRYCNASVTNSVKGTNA
Assay: Octet BLI; Fab 200 nM
Threshold 20 nM: Kd strictly smaller gives 1.0, otherwise 0.0.

Problem: Hello, I'm reviewing records and need to know if Kd of AB200-R1a-Fab_VH60 (Fab, V domains shown) VH: QVQLVQSGAEVKKPGSSVKVSCKASGGTFSSYWMHWVRQAPGQGLEWMGATYRIHSDSYYNQKFKGRVTITADKSTSTAYMELSSLRSEDTAVYYCARGAIYHGYDVLDNWGQGTLVTVSS VL: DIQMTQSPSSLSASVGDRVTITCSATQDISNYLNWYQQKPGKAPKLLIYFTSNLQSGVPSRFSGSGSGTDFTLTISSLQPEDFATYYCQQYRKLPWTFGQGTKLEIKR is below 20 nM. Could you check?
Result: 1.0

Problem: Same question for AB200-R1a-Fab_VH35 (Fab, V domains shown) VH: QVQLVQSGAEVKKPGSSVKVSCKASGGTFSNYWIHWVRQAPGQGLEWMGATFKGHSDTYYNQKFKGRVTITADKSTSTAYMELSSLRSEDTAVYYCARGAIYHGYDVLDNWGQGTLVTVSS VL: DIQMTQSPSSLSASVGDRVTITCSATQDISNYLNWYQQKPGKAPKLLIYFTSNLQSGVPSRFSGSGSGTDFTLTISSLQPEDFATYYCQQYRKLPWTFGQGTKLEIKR please.
Result: 1.0

Problem: How about AB200-R1a-Fab_VH45 (Fab, V domains shown) VH: QVQLVQSGAEVKKPGSSVKVSCKASGGTFSNYWMHWVRQAPGQGLEWMGATYRGHSDTYYNNKFKGRVTITADKSTSTAYMELSSLRSEDTAVYYCARGAIYHGYDVLEDWGQGTLVTVSS VL: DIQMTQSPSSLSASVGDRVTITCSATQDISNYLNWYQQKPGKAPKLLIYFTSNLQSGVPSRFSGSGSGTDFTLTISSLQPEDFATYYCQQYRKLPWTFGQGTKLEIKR ?
Result: 0.0

Problem: Here is the next binder: AB200-R1a-Fab_VH48 (Fab, V domains shown) VH: QVQLVQSGAEVKKPGSSVKVSCKASGGTFSDYWMHWVRQAPGQGLEWMGATYRGHSDTYYNQRFKGRVTITADKSTSTAYMELSSLRSEDTAVYYCARGAIYHGYDVMDNWGQGTLVTVSS VL: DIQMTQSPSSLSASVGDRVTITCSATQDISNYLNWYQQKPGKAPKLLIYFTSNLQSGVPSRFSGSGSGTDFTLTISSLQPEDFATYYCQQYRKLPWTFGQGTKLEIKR
Result: 0.0

Problem: Moving on to AB200-R1a-Fab_VH18 (Fab, V domains shown) VH: QVQLVQSGAEVKKPGSSVKVSCKASGGTFSNYWMHWVRQAPGQGLEWMGATYKGHSDTYYNQKFKGRVTITADESTSTAYMELSSLRSEDTAVYYCARGAIYHGYEVLDNWGQGTLVTVSS VL: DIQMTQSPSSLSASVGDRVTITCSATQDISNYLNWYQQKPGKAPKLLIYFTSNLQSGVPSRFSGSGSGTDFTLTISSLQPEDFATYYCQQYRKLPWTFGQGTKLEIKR
Result: 1.0

Problem: And the next one, AB200-R1a-Fab_VH21 (Fab, V domains shown) VH: QVQLVQSGAEVKKPGSSVKVSCKASGGTFSNYAMHWVRQAPGQGLEWMGATYRGQSDTYYNQKYKGRVTITADKSTSTAYMELSSLRSEDTAVYYCARGAIYHGYDVLDNWGQGTLVTVSS VL: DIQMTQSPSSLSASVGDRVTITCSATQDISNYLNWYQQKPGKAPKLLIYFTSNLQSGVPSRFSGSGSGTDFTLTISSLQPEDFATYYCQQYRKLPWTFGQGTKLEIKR ?
Result: 1.0

Problem: Entry to check: AB200-R1a-Fab_VH8 (Fab, V domains shown) VH: QVQLVQSGAEVKKPGSSVKVSCKASGGTFSNYWMHWVRQAPGQGLEWMGATYRSHSDTYYNQKFKGRVTITADESTSTAYMELSSLRSEDTAVYYCARGAIFHGYDVLDNWGQGTLVTVSS VL: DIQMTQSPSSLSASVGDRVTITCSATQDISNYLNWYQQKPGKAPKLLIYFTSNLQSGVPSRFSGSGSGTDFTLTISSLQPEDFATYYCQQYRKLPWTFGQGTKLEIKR
Result: 1.0

Problem: Could you do the same for AB200-R1a-Fab_VH3 (Fab, V domains shown) VH: QVQLVQSGAEVKKPGSSVKVSCKASGGTFSNYWMSWVRQAPGQGLEWMGATYRGHSQTYYNQKFKGRVTITADKSTSTAYMELSSLRSEDTAVYYCARGAVYHGYDVLDNWGQGTLVTVSS VL: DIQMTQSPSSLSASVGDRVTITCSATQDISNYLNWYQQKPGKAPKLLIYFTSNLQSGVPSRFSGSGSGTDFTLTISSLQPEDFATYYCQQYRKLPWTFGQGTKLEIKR , please?
Result: 0.0

Problem: Another binder to check: AB200-R1a-Fab_VH36 (Fab, V domains shown) VH: QVQLVQSGAEVKKPGSSVKVSCKASGGTFSNYWMHWVRQAPGQGLEWMGATFRGHSDTYYNHKFKGRVTITADKSTSTAYMELSSLRSEDTAVYYCARGAIYHGFDVLDNWGQGTLVTVSS VL: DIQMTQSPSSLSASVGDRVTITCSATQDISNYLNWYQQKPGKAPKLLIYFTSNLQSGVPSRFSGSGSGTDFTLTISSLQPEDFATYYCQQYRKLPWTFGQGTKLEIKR
Result: 0.0
